// values below are reported Percent Effect
test system: Wolbachia pipientis; assay: Anti-Wolbachia Cell-Based Screen; type: functional; parameters: scale not given: in the data most compounds retested in dose-response had high values; conditions: 5 µM
About 13,000 (27%) of roughly 48,000 compounds showed an effect of 50% or more. Some of the results follow.
parameter-measured: Percent Effect (%)

compound | observed-result
Cc1cnn(C2CCCN(C(=O)Cn3ccc(=O)n(C)c3=O)C2)c1 (stereo not given) | -20.71
COCCCSc1ccc(NCc2cscn2)cc1 | -5.261
CN1CCN([C@@H]2CN(C(=O)CCOc3ccccc3)C[C@H]2O)CC1 | 98.51
O=C(NCCSCc1ccc(Br)s1)C1CCCN(c2cnccn2)C1 (stereo not given) | 1.609
CCc1nc(CN2CCCN(C(=O)C(C)COC)CC2)cs1 (stereo not given) | 7.127
Cc1ccc(Nc2c(C#N)c(=O)n(C)c(=O)n2C)cc1F | 8.024
O=C(O)C(F)(F)F.O=C(O)C(F)(F)F.O=C(O)c1cc2c(nc1N1CCOCC1)CCN(C1CCOC1)CC2 (stereo not given) | -7.215
O=C(CCc1cscn1)N1CCCC(n2ccnc2)C1 (stereo not given) | -7.112
CCn1nc(C)cc1C(=O)NCc1cccnc1N(C)C | -6.394
CCn1ccnc1CN1CCN(CC(=O)NC(=O)NC2CC2)CC1 | -16.24

###

test system: Wolbachia pipientis; test: Anti-Wolbachia Cell-Based Screen; format: functional; parameters: scale not given: in the data most compounds retested in dose-response had high values; details: 5 µM
Screen size: about 48,000 compounds; about 13,000 (27%) showed an effect of 50% or more. The list shows a part of the results.
Measured Percent Effect of individual entries
parameter-measured: Percent Effect (%)

molecule | units-of-measure | observed-result
COCC1c2c(cnn2C)CCN1Cc1ccoc1 (configuration not stated) | % | -6.273
CCOc1ccc(C(=O)CCC(=O)NCc2csc(N)n2)cc1C | % | 5.175
O=C(O)C(F)(F)F.O=C(O)C(F)(F)F.O=c1ccc2c(n1Cc1cccnc1)CCN(Cc1ccoc1)CC2 | % | 110
COc1ccc2c(c1)C1(CCN(Cc3ccoc3)CC1)N(C)CC2 | % | -15.48
COc1ccc(C(C)NC(=O)Nc2nccs2)cc1OC (configuration not stated) | % | -9.507
CCCN1CCC(Nc2nc(C)ns2)CC1 | % | -28.04
Cn1c2c(ccc1=O)CCN(Cc1ccoc1)CC2.O=C(O)C(F)(F)F | % | 97.4
O=C(O)C(F)(F)F.O=C(O)C(F)(F)F.O=c1ccc2c(n1Cc1cccnc1)CCN(CC1CCOC1)CC2 (configuration not stated) | % | -12.29
CCCN(c1ccccc1C(=O)O)S(=O)(=O)c1ccc2ccccc2c1 | % | -7.662
Cc1ccc(CN2CCC3(CC2)CC(NC(=O)c2ccccn2)CO3)o1 (configuration not stated) | % | -7.485
CNC(=O)c1cccc(CC2COCCN(Cc3ccsc3)C2)n1 (configuration not stated) | % | 152.2
Cc1cnc(C(=O)NCC2CCOc3ccccc3C2)cn1 (configuration not stated) | % | -13.56

###

system: Wolbachia pipientis; assay: Anti-Wolbachia Cell-Based Screen; assay type: functional; design: scale not given: in the data most compounds retested in dose-response had high values; conditions: 5 µM
Hit rate of the full screen: of about 48,000 compounds, about 13,000 (27%) showed an effect of 50% or more. The list shows a part of the results.
parameter-measured: Percent Effect (%)

molecule | parameter-measured | units-of-measure | observed-result
CCOCC1CN(C(=O)[C@H]2CCCO2)Cc2nnn(CC3CC3)c21 (stereo not given in full) | Percent Effect | % | 0.1287
CC(C)NC(=O)C[C@@H]1CCNC[C@@H]1Cc1cc(-c2ccccn2)on1 | Percent Effect | % | -9.264
CC(NC(=O)CN1C=Nc2ccccc2S1(=O)=O)c1ccccc1 (stereo not given) | Percent Effect | % | 1.961
O=C(Nc1nc2c(s1)CN(S(=O)(=O)C1CC1)CC2)c1c(F)cccc1F | Percent Effect | % | -9.469
Cn1cc(S(=O)(=O)Nc2ccc(Cl)cn2)cc1C(N)=O | Percent Effect | % | 6.201
O=C([C@@H]1CCS(=O)(=O)[C@@H]2CN(c3ncccn3)C[C@@H]21)N1CCOCC1 | Percent Effect | % | 104.7
CC(C)(CNc1cn[nH]c(=O)c1Cl)c1ccc2c(c1)OCO2 | Percent Effect | % | 11.94
CC(C(=O)NCC(C)(C)c1ccc2c(c1)OCO2)n1ccnc1 (stereo not given) | Percent Effect | % | 97.89
O=C(Nc1nc2c(s1)CCC2)NC1CCCC1 | Percent Effect | % | 91.02
CCOc1ncccc1NC(=O)N1CCc2ccccc2C1 | Percent Effect | % | -0.7073
Cn1c(CO)cnc1SC(C(=O)NC1CC1)c1ccccc1 (stereo not given) | Percent Effect | % | -13.82
CCc1ccc(C(=O)N2CCN(Cc3ccc(F)cc3)CC2)s1 | Percent Effect | % | -10.91
N[C@H]1CN(CCCOc2ccccc2)C[C@@H]1C1CC1 | Percent Effect | % | -13.64
CC(C(=O)NCc1ccc2c(c1)OCCO2)n1cncn1 (stereo not given) | Percent Effect | % | 116.3
CCN(CC(=O)NC(C)C)C(=O)C(C)(C)c1ccc2c(c1)OCCO2 | Percent Effect | % | -2.563

###

system: Wolbachia pipientis; test: Anti-Wolbachia Cell-Based Screen; format: functional; parameters: scale not given: in the data most compounds retested in dose-response had high values; conditions: 5 µM
The campaign covered roughly 48,000 compounds. About 13,000 (27%) showed an effect of 50% or more. Some of the results follow.
Below is a list of entries, each paired with its recorded Percent Effect value.

compound | assayed-target | Percent Effect / %
Cc1n[nH]c(C)c1C1COCCN1C(=O)c1ccccc1 (stereo not given) | Wolbachia pipientis | 5.535
N#Cc1cccc(C(=O)N2CC(c3nc(-c4cccnc4)no3)C2)c1 | Wolbachia pipientis | 18.62
O=c1[nH]nc2n1CCN(S(=O)(=O)c1ccccc1Cl)C2 | Wolbachia pipientis | -39.65
O=C(c1ccc2c(c1)CCCC2)N1CCOCC1c1ncon1 (stereo not given) | Wolbachia pipientis | 4.25
CS(=O)(=O)NC[C@]12COC[C@H]1CN(CC1CCC1)C2.O=C(O)C(F)(F)F | Wolbachia pipientis | 92.98
CS(=O)(=O)NC[C@]12COC[C@H]1CN(C(=O)N1CCCC1)C2 | Wolbachia pipientis | 88.05
O=C(O)C(F)(F)F.O=S(=O)(NC[C@]12COC[C@H]1CN(CCc1ccccc1)C2)C1CC1 | Wolbachia pipientis | -3.746
CCc1nnc2n1CCN(CCS(=O)(=O)c1ccccc1)C2 | Wolbachia pipientis | 5.511
Cc1n[nH]c(C)c1C1COCCN1C(=O)Cc1cccc(F)c1 (stereo not given) | Wolbachia pipientis | -5.544
Cc1cn[nH]c1C1COCCN1C(=O)c1ccc2c(c1)CCCC2 (stereo not given) | Wolbachia pipientis | 108.4
CC(=O)Nc1cc(C(=O)N2CCOCC2c2ccc(C)o2)ccc1F (stereo not given) | Wolbachia pipientis | -2.563
Clc1ccc2cccnc2c1CN1CCn2c(nnc2C2CC2)C1 | Wolbachia pipientis | -29.6
Cc1cccc2[nH]c(C3CCN(C(=O)c4ccnn4C)CC3)nc12 | Wolbachia pipientis | 1.136
Cc1cc(CNc2ccc(-c3nc(C4CC4)no3)cn2)no1 | Wolbachia pipientis | -5.978
CS(=O)(=O)NC[C@]12COC[C@H]1CN(C(=O)Cc1ccccc1F)C2 | Wolbachia pipientis | 6.41

###

tested on: Wolbachia pipientis; test: Anti-Wolbachia Cell-Based Screen; assay type: functional; set-up: scale not given: in the data most compounds retested in dose-response had high values; conditions: 5 µM
The whole screen tested about 48,000 compounds, of which about 13,000 (27%) showed an effect of 50% or more. Some of the results follow.

compound | Percent Effect [%]
COc1cc2nc3n(c(=O)c2cc1OC)CCN(C(=O)C(C)(C)C)CC3 | 130.5
COCCN(C)C(=O)c1ccc(OC)cc1O | -1.632
COc1ccc(Br)cc1SCCC(N)=O | 101.3
Cn1cc(CNCCn2cccn2)c(-c2cccnc2)n1 | 3.416
CNc1ncc(CN(C)c2nc(C)c3ccc(S(C)(=O)=O)cc3n2)cn1 | 9.72
CN(CCC(O)c1ccccc1)c1cc(N2CCOCC2)ncn1 (stereo not given) | 3.711
COc1ccc(OCCN(C)C(=O)c2ccc(OC)cc2O)cc1 | 93.52
OCC1CCCN1c1cc(N2CCN(c3ccccn3)CC2)ncn1 (stereo not given) | 2.004
COc1ccc(C(C)N2CCC(CO)CC2)cc1Cl (stereo not given) | 2.465
CCC[C@@H]1CN(C(=O)c2cc3ccccc3cc2O)C[C@H]1N(C)C | 2.808

###

tested on: Wolbachia pipientis; assay: Anti-Wolbachia Cell-Based Screen; type: functional; design: scale not given: in the data most compounds retested in dose-response had high values; details: 5 µM
Screen size: about 48,000 compounds; about 13,000 (27%) showed an effect of 50% or more. The list shows a part of the results.

molecule | Percent Effect, %
CCN1CCN(C(=O)c2cccc(CN3CCOCC3)c2)CC1 | 97.52
Cc1c(CN2CCc3[nH]cnc3C2C(=O)O)[nH]c2ccc(F)cc12 (centres undefined) | 4.217
COc1ncccc1CN1CCC2(CC1)CC(OCC1CC1)CO2.O=C(O)C(F)(F)F (centres undefined) | 103.5
Cc1ccc2[nH]c(CN3CC[C@@H](N4CCN(C)CC4)[C@H](O)C3)c(C)c2c1 | 130.9
CC(C)n1c(C(=O)N2CCCC2)nc2c1CCN(C)C2.O=C(O)C(F)(F)F | -17.76
O=C(O)c1cc2n(n1)CCCN(C(=O)CCc1c[nH]c3ccccc13)C2 | -8.48
CC1CCN(C(=O)c2cccc(CN3CCOCC3)c2)CC1 | 117.9
Cc1c(CN2C[C@H](O)[C@@H](N3CCOCC3)C2)[nH]c2ccc(F)cc12 | 90.42
COc1ccc(CN(C)CC2(O)CCNC2)cc1 (centres undefined) | 119.3
